Attribute: MIC
# System: Bacillus subtilis
# method: Antibacterial activity against Bacillus subtilis MTCC 441 after 24 hrs by agar well diffusion method
# Assay type: functional
# experimentalConditions: MTCC 441, 24 h
valueType: MIC (µg/mL)

compound | targetDesc | reportedMeasurement
COc1ccc(C2=NN(C(C)=O)C(c3ccc(NS(=O)(=O)c4ccc(OC(F)(F)F)cc4)cc3)C2)cc1OC (centres undefined) | Bacillus subtilis | 45
COc1ccc(NC(=S)Nc2ccc(C3CC(c4ccc(OC)c(OC)c4)=NN3C(C)=O)cc2)cc1 (centres undefined) | Bacillus subtilis | 65
O=C(O)c1cn(C2CC2)c2cc(N3CCNCC3)c(F)cc2c1=O [CIPROFLOXACIN] | Bacillus subtilis | 15
COc1ccc(C2=NN(C(C)=O)C(c3ccc(NC(=S)Nc4ccc(Cl)cc4)cc3)C2)cc1OC (centres undefined) | Bacillus subtilis | 90

###

# Tested on: Escherichia coli
# method: Antibacterial activity against Escherichia coli MTCC 443 after 24 hrs by agar well diffusion method
# Type: functional
# experimentalConditions: MTCC 443, 24 h
Attribute: MIC

compound | MIC
COc1ccc(C2=NN(C(C)=O)C(c3ccc(NS(=O)(=O)c4ccc(C(F)(F)F)cc4Cl)cc3)C2)cc1OC (stereo not drawn) | 10 µg/mL
COc1ccc(C2=NN(C(C)=O)C(c3ccc(NC(=O)Nc4ccc(OC(F)(F)F)cc4)cc3)C2)cc1OC (stereo not drawn) | 25 µg/mL
COc1ccc(C2=NN(C(C)=O)C(c3ccc(NS(=O)(=O)c4ccc(OC)c(OC)c4)cc3)C2)cc1OC (stereo not drawn) | 90 µg/mL

###

# Test system: Bacillus subtilis
# method: Antibacterial activity against Bacillus subtilis MTCC 441 after 24 hrs by agar well diffusion method
# Assay type: functional
# experimentalConditions: MTCC 441, 24 h
So basically: is MIC under 40 µg/mL? Then 1. Not under? Then -1.

molecule | targetDesc | assignedLabel
COc1ccc(C2=NN(C(C)=O)C(c3ccc(NC(=S)Nc4ccccc4F)cc3)C2)cc1OC (stereo not drawn) | Bacillus subtilis | -1
COc1ccc(C2=NN(C(C)=O)C(c3ccc(NS(=O)(=O)c4ccc(C(F)(F)F)cc4)cc3)C2)cc1OC (stereo not drawn) | Bacillus subtilis | -1
COc1ccc(C2=NN(C(C)=O)C(c3ccc(NC(=O)Nc4cccc(Cl)c4F)cc3)C2)cc1OC (stereo not drawn) | Bacillus subtilis | -1
COc1ccc(C2=NN(C(C)=O)C(c3ccc(NS(=O)(=O)c4ccc(Br)cc4)cc3)C2)cc1OC (stereo not drawn) | Bacillus subtilis | -1
COc1ccc(C2=NN(C(C)=O)C(c3ccc(NC(=O)Nc4ccc(C(F)(F)F)cc4)cc3)C2)cc1OC (stereo not drawn) | Bacillus subtilis | 1
COc1ccc(C2=NN(C(C)=O)C(c3ccc(NS(=O)(=O)c4ccc(OC)c(OC)c4)cc3)C2)cc1OC (stereo not drawn) | Bacillus subtilis | -1
COc1ccc(C2=NN(C(C)=O)C(c3ccc(NS(=O)(=O)c4ccc(C(F)(F)F)cc4Br)cc3)C2)cc1OC (stereo not drawn) | Bacillus subtilis | 1
COc1ccc(C2=NN(C(C)=O)C(c3ccc(NC(=S)Nc4ccc(C#N)cc4)cc3)C2)cc1OC (stereo not drawn) | Bacillus subtilis | 1

###

Attribute: MIC
# System: Salmonella typhimurium
# method: Antibacterial activity against Salmonella typhimurium MTCC 98 after 24 hrs by agar well diffusion method
# Format: functional, Salmonella enterica subsp. enterica serovar Typhimurium
# experimentalConditions: Salmonella enterica, MTCC 98, 24 h

molecule | MIC [µg/mL]
COc1ccc(C2=NN(C(C)=O)C(c3ccc(NC(=O)Nc4ccccc4F)cc3)C2)cc1OC (stereo not drawn) | 80
COc1ccc(C2=NN(C(C)=O)C(c3ccc(NS(=O)(=O)c4cc(F)ccc4C)cc3)C2)cc1OC (stereo not drawn) | 40
COc1ccc(C2=NN(C(C)=O)C(c3ccc(NC(=S)Nc4ccc(C#N)cc4)cc3)C2)cc1OC (stereo not drawn) | 45
COc1ccc(C2=NN(C(C)=O)C(c3ccc(NC(=O)Nc4ccc(C(F)(F)F)cc4Cl)cc3)C2)cc1OC (stereo not drawn) | 80
COc1ccc(C2=NN(C(C)=O)C(c3ccc(NC(=O)Nc4ccc(C(F)(F)F)cc4)cc3)C2)cc1OC (stereo not drawn) | 40
COc1ccc(C2=NN(C(C)=O)C(c3ccc(NS(=O)(=O)c4ccc(OC(F)(F)F)cc4)cc3)C2)cc1OC (stereo not drawn) | 65
COc1ccc(C2=NN(C(C)=O)C(c3ccc(NC(=O)Nc4ccc(C(C)C)cc4)cc3)C2)cc1OC (stereo not drawn) | 55
COc1ccc(C2=NN(C(C)=O)C(c3ccc(NC(=O)Nc4ccccc4C(F)(F)F)cc3)C2)cc1OC (stereo not drawn) | 90
COc1ccc(C2=NN(C(C)=O)C(c3ccc(NS(=O)(=O)c4ccc(C(F)(F)F)cc4)cc3)C2)cc1OC (stereo not drawn) | 25
COc1ccc(C2=NN(C(C)=O)C(c3ccc(NC(=O)Nc4ccccc4OC(F)(F)F)cc3)C2)cc1OC (stereo not drawn) | 60
COc1ccc(C2=NN(C(C)=O)C(c3ccc([N+](=O)[O-])cc3)C2)cc1OC (stereo not drawn) | 90
COc1ccc(C2=NN(C(C)=O)C(c3ccc(NS(=O)(=O)c4ccc(C)cc4)cc3)C2)cc1OC (stereo not drawn) | 90
COc1ccc(C2=NN(C(C)=O)C(c3ccc(NS(=O)(=O)c4ccc(C(F)(F)F)cc4Cl)cc3)C2)cc1OC (stereo not drawn) | 15

Data provenance: ChEMBL document CHEMBL2157914
